Consider the following sequences and their measured protein stability index readings.
assay: protein stability index of a GFP-peptide fusion (GPS, HEK-293T) (PSI 1-6); higher = more stable; conditions: treatment: MLN4924 1 uM, 8 h; c terminus: a fixed tail appended;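 further: 24-mer peptide tiles fused after GFP, lentivirally expressed, FACS-sorted into six equal bins by GFP/DsRed ratio, decoded by Illumina sequencing, PSI is the read-weighted mean bin number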

# annotated cases, reported protein stability index shown
item.sequence: ETDEDEEEGDEQQRLLNTPRRKKL [GMCL1]
protein stability index: 5.63
--
item.sequence: ALRLEVRAGPDSAGIALYSHEDVC [CARM1]
protein stability index: 2.55
--
item.sequence: DAPLPGSKAKPKPPKQAQKEQRKQ [TBC1D10A]
protein stability index: 5.31

Query: Provide one value: measured protein stability index of EEALRKNTEEQLEIALAPYQHLEE [MTUS2]
Reply: 5.22

Query: Please report the measured protein stability index for RLVLDAALALQARGCSVKIWTAHY [ALG2]
Reply: 2.69

Query: Fill in reported protein stability index for this entry: VTLMVAKWTGDFFNKGIYDIHVGL [CLCN6]
Reply: 3.58

Query: Query protein stability index for VPLGFHYETKYVVLSYLGLLSQEK [BCL2L13]
Reply: 2.4
